Sourced from the supplement of paper PMC9170038

Test system: K4 kissing-loop RNA reporter;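 note: bound reporter read as fluorescence of individual clusters on recovered sequencing chips by microscopy, with normalized cluster intensities fitted with a binding model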
Experiment notes: apparent KD of K4 kissing-loop reporter; higher = weaker reporter binding
Test conditions: Eterna round: R107; input ligand: FMN 200 uM
For each of the sequences below, state its apparent KD of K4 kissing-loop reporter.
// return numeric value only (unit: nM, not printed)

## Task Query: apparent KD of K4 kissing-loop reporter; subject: AACAACUUGUUUGUCGGGUGUUCGCGCGAUACCAGCCGAAUGGAUGGCCCUUGGCAGCGCAGCGAGUGAUGUUCGCCCGCUUGAC [Exclusion Theophylline A GF 24]
## Result 611

## Task Likewise for CGUUUAUAGCAGGAUACCAGUACCCAUUAAGUACGUUAAUAGUAGAGUGAUGUUCUAAAGUACCCUUGGCAGCUUCCCGUGACCC [ExTheophylB.X] ?
## Result 103

## Task Query UGACAUUGCUCAGAUACCAGACAUGAGCAUCAGCCAUGUGCCAACGUACAAAUAAUAAAUGUCCCUUGGCAGCUGAGCAAUGUCU [TheoBX 15] next
## Result 67.4

## Task And UGACUACAAAAGGAAUAAUCCUAGUGAUGUUAGGAUAUGCUGAUAAGCAGAAGGAACGGAGAUCGAAGGAUCUCAUAUGUAGUCU [whbob_Ex_FMNA__2th193] ?
## Result 170

## Task Please do the same for UGUGAUGUGUAGUGUUAUGUUUUGCGGGAUACCAGAGUCUUUUUAUUCCCUUGGCAGCUUGAGUGAUGUUUGAUGCUGUUGUUGU [pwwamullin] as well.
## Result 485

## Task Another: AAACGUUGUUGCGAUACCAGCUGAUCGGAAACGAUCAUGCUGGAGUGAUGUUCCAGGAAAAGCCCUUGGCAGCGCAACGACGAAA [MAT - Same State Theophlline B - Mod of Eli - D30]
## Result 276

###

System: MS2 coat protein
Experiment notes: apparent KD of MS2 coat protein; designed switch direction (-1 OFF switch, 1 ON switch): -1; higher = weaker reporter binding
Test conditions: input ligand: FMN 200 uM
Provide the recorded apparent KD of MS2 coat protein for the entries that follow.

## Task Name the recorded apparent KD of MS2 coat protein for UAUUUAAUUAACAAGCUUUACAUGAGGAUCACCCAUGUGAUCAUGCUCGUCUUAUAAUUAAUUAAUUAAUUAAUUAA [Stov1/6-A2] (Eterna round: R97, puzzle: Sensor, turn-off variant 1) .
## Result 51.6 nM

## Task Please do the same for GUUGGAUGAGGAUAUCGAGGUUAGUACAUGAGGAUCACCCAUGUUAUCCAGGUGUCGGUUCGAGAAGGCAUUGGAC [LRO-Ex5-14] (Eterna round: R96, puzzle: Exclusion 5) as well.
## Result 104 nM

## Task Then what about the sequence ACAUGUUAUCCAUGAUAUCACAUGAGGAUCACCCAUGUUAUGGCGAUUUUGAGGUGUAAGUUUUUUGCUCGUCUUAU [JR_STOV1_Sub058] (Eterna round: R97, puzzle: Sensor, turn-off variant 1) ?
## Result 51.5 nM

## Task Same question, AGGUCCUUCUGGAGACAUGAGGAUCACCCAUGUCGAGUCAGCGAGGAUAUCGGUUAAUAAUGUGAUGAGAAGGCGCGGACCGAU [Ex NG3 #54] (Eterna round: R96, puzzle: Exclusion NG 3) this time
## Result 41.5 nM

## Task Subsequent entry: GCGGUACAUGAGGAUCACCCAUGUCAGGAUAUCCGCUGUUUGUUAAUAAACAAGCGGUGGAGAAGGGACUUCGC [-26.2, -25.5 kcal, 27% A] (Eterna round: R97, puzzle: Exclusion 1)
## Result 35.2 nM

## Task Field entry: AUAAUGUCAGGAUAUCGAGACUACUGCCUCGGCAGUAGUCUCGAGAAGGGACAUGAGGAUCACCCAUGUGAUCA [E4/1-A2] (Eterna round: R97, puzzle: Exclusion 4)
## Result 831 nM

## Task Moving on to the next sequence: CGCUAAGCUAUGCUCGUCAACAUGAGGAUCACCCAUGUGCACUACGGAAGGUACACAACGUACCAAAGACCUCAAAG [Eternabot (Original) Solution 27] (Eterna round: R97, puzzle: Sensor, turn-off variant 1)
## Result 185 nM

## Task How about GCUUGUAGAGGAUAUACGAGGGCCCGAGCGGAUAACACCGCACAUGAGGAUCACCCAUGUAGAAGGCUACCACC [Riquinza] (Eterna round: R96, puzzle: Exclusion 2) ?
## Result 331 nM

## Task Query GCACAGACAGGAUAUACAUGAGGAUCACCCAUGUGACCCUUAUAGUACUCGCGUACAAGUAGAAGGGUCUGUGC [Omei Ex3 Model Bachelor's Dilema v32] (Eterna round: R97, puzzle: Exclusion 3) next
## Result 320 nM

###

Can you tell me apparent KD of MS2 coat protein for the items I'm about to list?
Tested on: MS2 coat protein
Experiment notes: apparent KD of MS2 coat protein; designed switch direction (-1 OFF switch, 1 ON switch): -1; higher = weaker reporter binding
Test conditions: input ligand: FMN 200 uM
I'd appreciate it if you wrote the number followed by its unit.

## Task MS2 coat protein / apparent KD of MS2 coat protein / CUUUUGUGAGGAUAUUAGUAGUAAAUAAUUAAAAUUACUACUGAGAAGGCACAUGAGGAUCACCCAUGUUCCUC [salish99_ex4_r3_056] (Eterna round: R96, puzzle: Exclusion 4) : value?
## Result 489 nM

## Task // next record AAUUAGCUAGGAUAUACAUGAGGAUCACCCAUGUCAGUUACAUGGCCGGGUGUAACGAGUAGAAGGAGCGCCAA [EX3 B.28] (Eterna round: R97, puzzle: Exclusion 3)
## Result 175 nM

## Task Also UGCGGUAGAGGAUAUACGUAGAAUUAGAUUCAUGUAAAACUACAUGAGGAUCACCCAUGUAGAAGGCUAUCGCU [JL-ex2-4.31 Eli mod] (Eterna round: R97, puzzle: Exclusion 2) ?
## Result 102 nM

## Task And UAGAAAGAAGUCAGGAUAUCAUGAGUUGCAGCUCAUGAGAAGGGACAUGAGGAUCACCCAUGUAACACGCCUCU [Eternabot (L2) Solution 62] (Eterna round: R97, puzzle: Brourd's mod of Exclusion 4) ?
## Result 28.9 nM

## Task For CCCGCAGGUUUUUUGCUCGACAUGAGGAUCACCCAUGUUGCGUGGGUUGUGUGUGUGUGGUGCAUAUAUAUGGUCCU [-25.4, -48.9 kcal, A 14%] (Eterna round: R97, puzzle: Sensor, turn-off variant 1) then?
## Result 300 nM

## Task Another sequence to look at: CAGAAGUGAGGAUAUAUAUGUAAGUUUGAUCCAACAAGUAUACAUGAGGAUCACCCAUGUAGAAGGUGCUUCCC [Eternabot (L2) Solution 45] (Eterna round: R97, puzzle: Exclusion 2)
## Result 57.2 nM

## Task # iterate: AGUUUUAAUGAGGAUAUCGUAUUGGAUAUAGUGCGAGAAGGCAUUACAUGAGGAUCACCCAUGUUUUGUUGGGA [JR_Ex6_Sub008] (Eterna round: R97, puzzle: Exclusion 6)
## Result 58.1 nM

## Task Next: UGCAGACGAGGAUAUAGAUUUAAGUACAUGAGGAUCACCCAUGUACACAUGUAUUUAGAUUUAGAAGGCGUCUGCU [E5/17-A4] (Eterna round: R97, puzzle: Exclusion 5)
## Result 987 nM

## Task Now consider AGUUAUGUAGGAUAUGCACGUGACAACUUGAGGAUCACCCAAGUGAUUGCAGGCUGGGCGGCAGAAGGGCAGUUGU [Diedbi] (Eterna round: R97, puzzle: Exclusion 5) and answer again.
## Result 153 nM

## Task Now the sequence CUGCUCCGUGUAGGAUAUGCGCGCACCCACCGCGCAGAAGGACAUGAGGAUCACCCAUGUAUGUUAUUAUCACGUGAGGCGCGG [Design 36] (Eterna round: R96, puzzle: Exclusion NG 1)
## Result 31.9 nM

## Task Again, but for CUGAGCUGAGGAUAUACAUGAGGAUCACCCAUGUAAAGCAGCUUGCGUACAGGCAGAUGUAGAAGGCAGUUCGG [Mod of JL 16 - Jieux - Exclusion 3] (Eterna round: R97, puzzle: Exclusion 3)
## Result 37.4 nM

## Task Try this sequence too: UUCACAUGGACAUGAGAUCACAUGAGGAUCACCCAUGUGAAUAACAAGCUUUUUGCUCGUCUUAUGUCCAAUAAUAU [Stov1/14-C3] (Eterna round: R97, puzzle: Sensor, turn-off variant 1)
## Result 13.1 nM

## Task Another sequence to look at: UGAGCUACAGGAUAUAUGUGGCGACCGUGAGGUCGAAGGUUACAUGAGGAUCACCCAUGUAGAAGGGUAGUUCU [Mat - Exclusion 2 - JL Mod - D20] (Eterna round: R97, puzzle: Exclusion 2)
## Result 311 nM

## Task Try this sequence too: CCUCGUAGGGAGGAUAUCCUUUAAAUUUAAGGAGGAGAAGGCUCAACAUGAGGAUCACCCAUGUAAAAUUUAAA [-17, -14.8 kcal, A 36%] (Eterna round: R97, puzzle: Exclusion 6)
## Result 109 nM

## Task Next up: CAUGAUUGGGAAGGAUAUUGACCUAGUUAGCGCCGAGAAGGUCCCUUUCACAUGAGGAUCACCCAUGUGAGUCUGGUGUUCGAG [Ex NG1 #96] (Eterna round: R96, puzzle: Exclusion NG 1)
## Result 37.7 nM

## Task Now consider UAAUUUUUAGUAAGGAUAUCGGUCCCAAGGGACAACGAGAAGGUACAUGAGGAUCACCCAUGUGAAAUAAGAAU [Mod of Zala 4 - Jieux - Brourd's Mod of Exclusion 4] (Eterna round: R97, puzzle: Brourd's mod of Exclusion 4) and answer again.
## Result 27.9 nM

## Task Also need GCCUACGCAGGAUAUGUCCAGGGAAACAUGAGGAUCACCCAUGUGGAGUGGACUCGGGUUGCAGAAGGGCGGGCAC [Eternabot (Original) Solution 3] (Eterna round: R97, puzzle: Exclusion 5) , thanks.
## Result 21.2 nM

## Task Queued: CCCAGUUAGUCAGGAUAUCUUACAUGAGGAUCACCCAUGUAAUAAAUGAGGAUUUCGGGUGUCUAAGAGAAGGGACGGAUAGGC [Ostracism 27 - Jieux - Exclusion NG 2] (Eterna round: R96, puzzle: Exclusion NG 2)
## Result 22.3 nM
